System: Vero E6 infected with SARS-CoV-2
Method: inhibition of SARS-CoV-2 cytopathic effect; higher = more antiviral protection, active = above 15
Assay setup: 10000 nM; 48 h
Quick list: inhibition of SARS-CoV-2 cytopathic effect per entry.
Value type: inhibition of SARS-CoV-2 cytopathic effect (%)

# Compound, Uom, Observed
records = [
    ("O=C(Nc1ccncc1)c1cc([N+](=O)[O-])ccc1Cl", "%", 14.7),
    ("CC(C)(C)NCC(O)COc1cccc2c1CCC(=O)N2 (configuration not stated)", "%", -0.66),
    ("Cc1nc2ccccc2n1Cc1ccc(Cl)cc1", "%", -4.49),
    ("CCCCN1CCCC1CNC(=O)c1cc(C#N)c2ccccc2c1OC (configuration not stated) [nafadotride]", "%", 0.87),
    ("C[C@H]1CO[C@@H]2Cn3cc(C(=O)NCc4ccc(F)cc4F)c(=O)c(O)c3C(=O)N12", "%", -0.84),
    ("CCn1c(-c2nonc2N)nc2cncc(C(=O)N3CC[C@H](N)C3)c21", "%", -2.39),
    ("CC(C)(O)c1coc(S(=O)(=O)NC(=O)Nc2c3c(cc4c2CCC4)CCC3)c1", "%", -0.6),
    ("O=P(O)(O)C(Cl)(Cl)P(=O)(O)O", "%", -1.06),
    ("CCOC(=O)[C@@H](N)Cc1ccc(O)c(O)c1", "%", 0.9),
    ("CCCCCCCCCCCCCCCC(=O)C(F)(F)F", "%", -0.25),
    ("COc1ccc(COc2ccc(Cc3cnc(N)nc3N)cc2OC)cc1", "%", 0.48),
    ("CC(=O)Nc1c(I)c(C(=O)O)c(I)c(N(C)C(C)=O)c1I", "%", 1.65),
    ("CN1CCC[C@@H]1Cc1c[nH]c2ccc(CCS(=O)(=O)c3ccccc3)cc12", "%", -2.89),
    ("CN(C(=O)Cc1ccccc1)[C@H](CN1CCCC1)c1ccccc1", "%", -1.59),
    ("CC(=O)NC[C@H]1CN(c2ccc(N3CCN(C(=O)CO)CC3)c(F)c2)C(=O)O1", "%", 0.19),
    ("Nc1ncnc2c1nc(Br)n2[C@@H]1O[C@@H]2COP(=O)(O)O[C@H]2[C@H]1O", "%", -0.37),
    ("OB1OCc2cc(Cl)ccc21", "%", 1.07),
    ("CCn1c(=O)/c(=C2\\Sc3ccccc3N2C)s/c1=C\\c1cccc[n+]1CC", "%", -6.25),
    ("O=C(N[C@H]1CN2CCC1CC2)c1ccc(Cl)cc1", "%", 1.51),
    ("CC1=NN=C(c2ccc(N)cc2)c2cc3c(cc2C1)OCO3", "%", 0.44),
    ("COc1ccc(Cl)cc1NC(=O)Nc1cc(C)nc2ccccc12", "%", -17.7),
    ("O=C(O)[C@H]1CN(C/C=C/P(=O)(O)O)CCN1", "%", 3.52),
]

---

Quick list: inhibition of SARS-CoV-2 cytopathic effect per entry.
System: Vero E6 infected with SARS-CoV-2
Method: inhibition of SARS-CoV-2 cytopathic effect; higher = more antiviral protection, active = above 15
Assay setup: 100 nM; 48 h
Value type: inhibition of SARS-CoV-2 cytopathic effect (%)

# Molecule, Observed
data = [
    ("O=C1C2C=Nc3ccccc3C2=NN1c1ccc(Cl)cc1 (stereo not drawn)", 1.99),
    ("COc1ccc(Cl)cc1[C@]1(F)C(=O)Nc2cc(C(F)(F)F)ccc21 [flindokalner]", -1.3),
    ("NS(=O)(=O)Cc1noc2ccccc12 [zonisamide]", -0.76),
    ("Nc1nc(-c2ccc(Cl)c(Cl)c2)c(-c2ccncc2)s1", -2.7),
    ("CNC(=O)Oc1ccccc1OC(C)C [propoxur]", 3.02),
    ("CC[C@@H](C)CNCC(=O)N1CCc2sccc2[C@@H]1COc1cccc(C)c1", 2.09),
    ("BrC1C(Br)C(Br)C(Br)C(Br)C1Br (stereo not drawn) [1,2,3,4,5,6-hexabromocyclohexane]", -1.07),
    ("CCn1c2ccccc2c2cc(Nc3ccnc(NCCCN4CCOCC4)n3)ccc21", 0.05),
    ("CCCCCCCCCCCCCCCC[N+](C)(C)Cc1ccccc1 [benzyldimethylhexadecylammonium]", -1.57),
    ("Cc1cc(Nc2nc(N[C@@H](C)c3ccc(F)cc3)c(C#N)cc2F)n[nH]1", -1.14),
    ("COc1cccc(OCCCN)c1-c1cc(Nc2cnc(C#N)cn2)n[nH]1", -1.17),
    ("Cc1cc(C)cc(C(=O)NOCCCCCC(=O)NO)c1", -1.04),
    ("CC[C@H](C)[C@@H]1NC(=O)[C@H](Cc2ccc(O)cc2)NC(=O)[C@@H](N)CSSC[C@@H](C(=O)N2CCC[C@H]2C(=O)N[C@@H](CC(C)C)C(=O)NCC(N)=O)NC(=O)[C@H](CC(N)=O)NC(=O)[C@H](CCC(N)=O)NC1=O [oxytocin]", 3.52),
    ("Cc1c(-c2ccccc2)oc2c(C(=O)OCCN3CCCCC3)cccc2c1=O [flavoxate]", 0.93),
    ("C[C@@H]1C(=O)O[C@H]2C[C@@]34[C@H]5C[C@@H](C(C)(C)C)[C@]36[C@@H](OC(=O)[C@@H]6O)O[C@@]4(C(=O)O5)[C@]21O [Ginkgolide A]", 2.7),
    ("CC(=O)O[C@H]1C[C@@]2(C)[C@@H](C[C@@H](O)[C@H]3[C@@]4(C)CC[C@@H](O)[C@@H](C)[C@@H]4CC[C@@]32C)/C1=C(\\CCC=C(C)C)C(=O)O [fusidic-acid]", -1.13),
    ("CCN(CC)CCOc1ccc(Nc2ncc3cc(-c4c(Cl)cccc4Cl)c(=O)n(C)c3n2)cc1", -2.93),
    ("NC(N)=O [urea]", -2.79),
    ("CC(Oc1c(Cl)cccc1Cl)C1=NCCN1 (stereo not drawn) [lofexidine]", 5.17),
    ("O=C(Oc1ccccc1)c1ccccc1O [phenyl-salicylate]", -0.85),
    ("CCCn1c(=O)c2nc(-c3ccccc3)[nH]c2n(CCC)c1=O [1,3-dipropyl-8-phenylxanthine]", -2.96),
    ("O=C(c1ccccn1)c1cnn2c(-c3ccncc3)ccnc12 [ocinaplon]", -0.52),
    ("CCCC(=O)O[C@]1(C(=O)COC(C)=O)CC[C@H]2[C@@H]3C[C@H](F)C4=CC(=O)C=C[C@]4(C)[C@@]3(F)[C@@H](O)C[C@@]21C [difluprednate]", 1.52),
    ("CN/C(=N\\c1ccc(C2=NNC(=O)CC2C)cc1)NC#N (stereo not drawn) [siguazodan]", -0.26),
    ("CN(C)C[C@H](O)Cn1c2ccc(Br)cc2c2cc(Br)ccc21 (racemic) [wiskostatin]", 0.88),
    ("CC(=O)OCC(CCn1cnc2cnc(N)nc21)COC(C)=O [famciclovir]", -3.04),
    ("Cc1cc(O)c(C(=O)N[C@@H](C(=O)N[C@@H]2C(=O)N3C(C(=O)O)=C(CSc4nnnn4C)CS[C@H]23)c2ccc(O)cc2)cn1 [cefpiramide]", 0.85),
    ("Cc1cc(N2CCOCC2)ccc1Nc1nc(NC2CCCCC2)c2nc[nH]c2n1", -7.66),
    ("CO[C@H](C(=O)[C@@H](O)[C@@H](C)O)[C@@H]1Cc2cc3cc(O[C@H]4C[C@@H](O[C@H]5C[C@@H](O)[C@H](O)[C@@H](C)O5)[C@@H](O)[C@@H](C)O4)c(C)c(O)c3c(O)c2C(=O)[C@H]1O[C@H]1C[C@@H](O[C@H]2C[C@@H](O[C@H]3C[C@](C)(O)[C@H](O)[C@@H](C)O3)[C@H](O)[C@@H](C)O2)[C@H](O)[C@@H](C)O1 [plicamycin]", 3.85),
    ("NCC(CS(=O)(=O)O)c1ccc(Cl)cc1 (stereo not drawn) [saclofen]", -1.16),
    ("Oc1cc(O)c2c(c1)O[C@H](c1ccc(O)c(O)c1)[C@@H](O)C2 [cianidanol]", -1.15),
    ("c1ccc(CNCc2ccc(CN3CCCNCCNCCCNCC3)cc2)nc1", 3.41),
    ("O=C1CC[C@@H](C(=O)N2CSC[C@H]2C(=O)O)N1 [pidotimod]", -1.22),
]

---

Test system: Vero E6 infected with SARS-CoV-2
Method: inhibition of SARS-CoV-2 cytopathic effect; higher = more antiviral protection, active = above 15
Assay setup: 833.33 nM; 48 h
Value type: inhibition of SARS-CoV-2 cytopathic effect (%)

# Compound, Measured target, Observed
records = [
    ("CC(C)(C)n1nc(-c2cccc3ccccc23)c2c(N)ncnc21 [1-naphthyl-PP1]", "Vero E6 infected with SARS-CoV-2", 1.24),
    ("N#C/C(=C\\c1ccc(O)c(O)c1)C(=O)NCCCCc1ccccc1", "Vero E6 infected with SARS-CoV-2", 0.14),
    ("Cn1cc(/C=C2\\C(=O)Nc3cccnc32)c2ccccc21", "Vero E6 infected with SARS-CoV-2", 0.64),
    ("O=C(CCCl)NCCc1ccccc1 [fenaclon]", "Vero E6 infected with SARS-CoV-2", -1.53),
    ("CS(=O)(=O)Nc1ccc2oc3c(OC(F)F)ccc(C(=O)Nc4c(Cl)cncc4Cl)c3c2c1 [oglemilast]", "Vero E6 infected with SARS-CoV-2", 0.94),
    ("N#Cc1c(N)nc(SCC(N)=O)c(C#N)c1-c1ccc(OCC2CC2)cc1", "Vero E6 infected with SARS-CoV-2", 10.1),
    ("Cc1cc(-c2nncc3c(C(C)(C)C)c(OCc4ncnn4C)nn23)no1", "Vero E6 infected with SARS-CoV-2", -3.08),
    ("CON [methoxyamine]", "Vero E6 infected with SARS-CoV-2", -3.19),
    ("COc1ccc(NS(=O)(=O)c2ccc(N)cc2)nn1 [sulfamethoxypyridazine]", "Vero E6 infected with SARS-CoV-2", 3.71),
    ("OCCN1C[C@H](O)[C@@H](O)[C@H](O)[C@H]1CO [miglitol]", "Vero E6 infected with SARS-CoV-2", -3.71),
    ("CC1CC(OC(=O)C(O)c2ccccc2)CC(C)(C)N1C (stereo unspecified) [eucatropine]", "Vero E6 infected with SARS-CoV-2", 0.69),
    ("CC(C)[C@@H](C)/C=C/[C@@H](C)[C@H]1CC[C@H]2C3=CC=C4C[C@@H](O)CC[C@]4(C)[C@H]3CC[C@]12C [ergosterol]", "Vero E6 infected with SARS-CoV-2", 2.74),
    ("Cc1cccc(Oc2nc3c(C)cccn3c(=O)c2/C=C(\\C#N)c2nc3ccccc3s2)c1", "Vero E6 infected with SARS-CoV-2", 3.43),
    ("OC(CCCN1CCCCC1)(c1ccccc1)c1ccccc1 [diphenidol]", "Vero E6 infected with SARS-CoV-2", -1.92),
    ("O=P(O)(O)C(O)(Cn1ccnc1)P(=O)(O)O [zoledronic-acid]", "Vero E6 infected with SARS-CoV-2", 0.51),
    ("C[C@]1(c2nc3c(C(N)=O)cccc3[nH]2)CCCN1 [veliparib]", "Vero E6 infected with SARS-CoV-2", 4.23),
    ("CCc1nn(CCO)c(CC)c1Oc1cc(C#N)cc(C#N)c1 [lersivirine]", "Vero E6 infected with SARS-CoV-2", 0.87),
    ("CN1CCN(c2ccc(/C=C(\\C#N)c3ccccc3Br)cc2)CC1", "Vero E6 infected with SARS-CoV-2", -2.26),
    ("CC(O)(P(=O)(O)O)P(=O)(O)O [etidronic-acid]", "Vero E6 infected with SARS-CoV-2", 0.77),
    ("CC(C)c1nc(N(C)S(C)(=O)=O)nc(-c2ccc(F)cc2)c1/C=C/[C@@H](O)C[C@@H](O)CC(=O)O [rosuvastatin]", "Vero E6 infected with SARS-CoV-2", -3.33),
    ("COc1ccc(S(=O)(=O)Nc2nc(-c3cccc([N+](=O)[O-])c3)cs2)cc1OC", "Vero E6 infected with SARS-CoV-2", 0.79),
]

Reference for the values: the supplement of paper PMC13380429
